# inhibition at 1 µM per entry
molecular target: Recombinant human Syk (GST-Syk kinase fusion protein) (Homo sapiens, UniProt P43405); construct: made in house; assay: Syk Kinase Test (Kinase Glo luminescence); type: biochemical; conditions: read-out: SYK inh % at 1 μM
A complete answer gives the number and then names the unit.

Cc1cc(-c2cc3ncccc3c(N3CC[C@@H](CN)C3)n2)ccc1N(C)C | 88.2%

Qu. Please report the recorded inhibition at 1 µM for COc1nc(-c2ccc(N(C)C)c(C)c2)cc2ncccc12 .
Ans. 73.2%

Qu. Please report the recorded inhibition at 1 µM for Cc1cc(-c2cc3ncccc3c(-n3cc(CCO)cn3)n2)ccc1N(C)C .
Ans. 105%

Qu. Please report the recorded inhibition at 1 µM for Cc1cc(-c2cc3ncccc3c(NC3CC3)n2)ccc1N(C)C .
Ans. 90.2%
